# protocolText: Cytotoxicity against HEL cells assessed as alteration in cell morphology by MTS assay
# Type: cell-based
# measurementConditions: human
valueKind: MCC

Solved cases below.
>>> experimentalvalue("Nc1nc2c(ncn2COCCO)c(=O)[nH]1 [ACYCLOVIR]")
"> 250 µM"
>>> experimentalvalue("O=c1[nH]c(=O)n([C@H]2C[C@H](O)[C@@H](CO)O2)cc1/C=C/Br [BRIVUDINE]")
"> 250 µM"

Task: I would be grateful if you could share the reported MCC for NC(=O)c1ncn([C@@H]2O[C@H](CO)[C@@H](O)[C@H]2O)n1 [RIBAVIRIN] .
Output: > 250 µM

Task: Any idea what its MCC is? The molecule is Nc1nc(O)c2ncn(COC(CO)CO)c2n1 [GANCICLOVIR]
Output: > 100 µM

###

# Test system: Coxsackievirus B4
# protocolText: Antiviral activity against Coxsackievirus B4 infected in HeLa cells assessed as inhibition of virus-induced cytopathic effect at 100 uM by MTS assay
# Type: functional, organism-based
Calls of active or inactive are those of the source. No cut-off for these calls is given here.
valueKind: Activity

Check out these entries, answers already filled in.
>>> experimentalvalue("CC(=O)Nc1ccc(S(=O)(=O)N(CCO)Cn2ccc(=O)[nH]c2=O)cc1")
"inactive"
>>> experimentalvalue("Cc1cn(CN(CCOC(=O)C(C)(C)C)S(=O)(=O)c2ccc(N)cc2)c(=O)[nH]c1=O")
"inactive"
>>> experimentalvalue("Cc1cn(CN(CCOC(=O)C(C)(C)C)S(=O)(=O)c2cccc(N)c2)c(=O)[nH]c1=O")
"inactive"
>>> experimentalvalue("CC(C)(C)C(=O)OCCN(Cn1ccc(=O)[nH]c1=O)S(=O)(=O)c1ccccc1N")
"inactive"

Let's switch to this compound now.
Task: Entry "Cc1cn(CN(CCO)S(=O)(=O)c2cccc(N)c2)c(=O)[nH]c1=O" : reported Activity = ?
Output: inactive

###

# System: MDCK
# protocolText: Cytotoxicity against MDCK cells assessed as decrease in cell viability upto 100 uM by MTS assay
# Format: cell-based, Canis lupus familiaris
# measurementConditions: dog
valueKind: Activity

The examples below pair each entry with its known result.
>>> experimentalvalue("CC(C)(C)C(=O)OCCN(Cn1ccc(=O)[nH]c1=O)S(=O)(=O)c1ccc(N)cc1")
"Not Active"
>>> experimentalvalue("Cc1cn(CN(CCOC(=O)C(C)(C)C)S(=O)(=O)c2cccc([N+](=O)[O-])c2)c(=O)[nH]c1=O")
"Not Active"
>>> experimentalvalue("Cc1cn(CN(CCO)S(=O)(=O)c2ccc(N)cc2)c(=O)[nH]c1=O")
"Not Active"
>>> experimentalvalue("CC(C)(C)C(=O)OCCN(Cn1ccc(=O)[nH]c1=O)S(=O)(=O)c1cccc([N+](=O)[O-])c1")
"Not Active"
>>> experimentalvalue("CC(C)(C)C(=O)OCCN(Cn1cc(F)c(=O)[nH]c1=O)S(=O)(=O)c1cccc(N)c1")
"Not Active"

Task: Suppose we examine the compound "Cc1cn(CN(CCOC(=O)C(C)(C)C)S(=O)(=O)c2ccc([N+](=O)[O-])cc2)c(=O)[nH]c1=O" ; what Activity value has been reported?
Output: Not Active

Task: Fill blank: measured Activity of the compound "Cc1cn(CN(CCOC(=O)C(C)(C)C)S(=O)(=O)c2ccc(N)cc2)c(=O)[nH]c1=O" is ____.
Output: Not Active

###

# protocolText: Cytotoxicity against african green monkey Vero cells assessed as alteration in cell morphology by MTS assay
# Assay type: cell-based
# measurementConditions: chlorocebus sabaeus
Collected MCC values appear next to each entry.
Give your result in µM as a bare value.

>>> experimentalvalue("CC(=O)Nc1ccc(S(=O)(=O)N(CCOC(=O)C(C)(C)C)Cn2ccc(=O)[nH]c2=O)cc1")
40

Pending molecule:
Task: What value of measured MCC is listed for "CC(=O)Nc1ccc(S(=O)(=O)N(CCOC(=O)C(C)(C)C)Cn2cc(C)c(=O)[nH]c2=O)cc1" ?
Output: 40

###

# protocolText: Cytotoxicity against MDCK cells assessed as alteration in cell morphology by MTS assay
# Assay type: cell-based, Canis lupus familiaris
# measurementConditions: dog
valueKind: MCC

>>> experimentalvalue("NC12CC3CC(CC(C3)C1)C2 [AMANTADINE]")
"> 100 µM"

Task: What does the data say about its MCC? Entry: CCOC(=O)C1=C[C@@H](OC(CC)CC)[C@H](NC(C)=O)[C@@H](N)C1 [OSELTAMIVIR]
Output: > 100 µM

Task: Request the reported MCC associated with CC(N)C12CC3CC(CC(C3)C1)C2 (centres undefined) [RIMANTADINE]
Output: > 100 µM

Task: MCC lookup needed for "CC(C)(C)C(=O)OCCN(Cn1cc(F)c(=O)[nH]c1=O)S(=O)(=O)c1cccc([N+](=O)[O-])c1" , thanks.
Output: ≥ 100 µM

###

# System: Coxsackievirus B4
# protocolText: Antiviral activity against Coxsackievirus B4 infected in HeLa cells assessed as inhibition of virus-induced cytopathic effect at 100 uM by MTS assay
# Type: functional, organism-based
Active and inactive are the calls of the source. No cut-off for these calls is given here.
valueKind: Activity

>>> experimentalvalue("Cc1cn(CN(CCOC(=O)C(C)(C)C)S(=O)(=O)c2ccc([N+](=O)[O-])cc2)c(=O)[nH]c1=O")
"inactive"
>>> experimentalvalue("CC(C)(C)C(=O)OCCN(Cn1cc(F)c(=O)[nH]c1=O)S(=O)(=O)c1ccc(N)cc1")
"inactive"
>>> experimentalvalue("Cc1cn(CN(CCOC(=O)C(C)(C)C)S(=O)(=O)c2ccccc2[N+](=O)[O-])c(=O)[nH]c1=O")
"inactive"

###

# Test system: MDCK
# protocolText: Cytotoxicity against MDCK cells assessed as decrease in cell viability upto 100 uM by MTS assay
# Assay type: cell-based, Canis lupus familiaris
# measurementConditions: dog
valueKind: Activity

>>> experimentalvalue("CC(C)(C)C(=O)OCCN(Cn1cc(F)c(=O)[nH]c1=O)S(=O)(=O)c1ccc(N)cc1")
"Not Active"
>>> experimentalvalue("CC(C)(C)C(=O)OCCN(Cn1cc(F)c(=O)[nH]c1=O)S(=O)(=O)c1ccccc1N")
"Not Active"
>>> experimentalvalue("Cc1cn(CN(CCO)S(=O)(=O)c2cccc(N)c2)c(=O)[nH]c1=O")
"Not Active"
>>> experimentalvalue("CC(=O)Nc1ccc(S(=O)(=O)N(CCO)Cn2ccc(=O)[nH]c2=O)cc1")
"Not Active"
>>> experimentalvalue("CC(C)(C)C(=O)OCCN(Cn1ccc(=O)[nH]c1=O)S(=O)(=O)c1ccccc1N")
"Not Active"

Task: What is its Activity for MDCK? Entry: "CC(=O)Nc1ccc(S(=O)(=O)N(CCOC(=O)C(C)(C)C)Cn2cc(F)c(=O)[nH]c2=O)cc1"
Output: Not Active

Task: Param readout = Activity; param system = MDCK; param query = "Cc1cn(CN(CCO)S(=O)(=O)c2ccccc2N)c(=O)[nH]c1=O" ; response: value
Output: Not Active

Task: Lab request: please report Activity under test system MDCK for "Cc1cn(CN(CCOC(=O)C(C)(C)C)S(=O)(=O)c2ccccc2[N+](=O)[O-])c(=O)[nH]c1=O"
Output: Not Active

Task: Tell me reported Activity for "Cc1cn(CN(CCOC(=O)C(C)(C)C)S(=O)(=O)c2cccc(N)c2)c(=O)[nH]c1=O" , tested with MDCK.
Output: Not Active

Task: # query: Activity | item "CC(=O)Nc1ccc(S(=O)(=O)N(CCOC(=O)C(C)(C)C)Cn2ccc(=O)[nH]c2=O)cc1" | system: MDCK
Output: Not Active

###

The entries below are paired with their reported MCC.
# protocolText: Cytotoxicity against african green monkey Vero cells assessed as alteration in cell morphology by MTS assay
# Format: cell-based
# measurementConditions: chlorocebus sabaeus

Here's what some known entries look like.
>>> experimentalvalue("O=c1[nH]c(=O)n([C@H]2C[C@H](O)[C@@H](CO)O2)cc1/C=C/Br")
"> 250 µM"
>>> experimentalvalue("Nc1ncnc2c1ncn2C[C@H](O)CO [(S)-DHPA]")
"> 250 µM"

Now let's try a different one.
Task: If you can, please state the reported MCC value of "NC(=O)c1ncn([C@@H]2O[C@H](CO)[C@@H](O)[C@H]2O)n1" .
Output: > 250 µM
